Biological target: T1, recombinant human FasR (Homo sapiens, UniProt P25445)
T1 construct: Fas receptor (FasR, CD95), human, recombinant; The FasR of the BLI and SPR experiments; Details are in Supplementary Protocols 8-10; also called recombinant FasR
T1 sequence (P25445 26-335): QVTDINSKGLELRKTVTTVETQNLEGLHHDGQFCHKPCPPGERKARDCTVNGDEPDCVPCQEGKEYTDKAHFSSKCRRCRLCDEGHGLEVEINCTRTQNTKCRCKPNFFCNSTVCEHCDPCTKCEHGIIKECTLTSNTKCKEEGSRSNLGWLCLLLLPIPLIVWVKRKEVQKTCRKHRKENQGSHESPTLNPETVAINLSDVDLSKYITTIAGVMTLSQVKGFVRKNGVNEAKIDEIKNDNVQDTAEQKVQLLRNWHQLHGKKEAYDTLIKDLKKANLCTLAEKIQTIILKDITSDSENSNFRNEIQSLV
Assay: BLI; Octet Red384; recombinant human FasR; 1:1 Langmuir model; at least in duplicate; who was immobilised is not told (Supplementary Protocols 8-10)
Details: both partners purified
// returns 0 unless Kd is strictly below 2 nM, in which case 1

[[record]]
binder = "A05a scFv (scFv, V domains shown, numbers count on: Kabat numbering; scFv linker, as in m6; Most abundant variant of round IV; the same as the Clade 2 consensus R4aH; also called R4aH) VH: QLQLQESSPGLVKPSETLSITCTVPGASISANSYYGVWVRQSPGKGLEWVGSIAYRGNSNSGSTYYNPSLKSRATVSVDTSKNQVSLRLTSVTAADTALYYCARRQLLDDGTGYQWAAFDVWGQGTMVTVSS VL: QSVLTQPPSVSEAPRQTVTISCSGNSFNIGRYPVNWYQQLPGKAPKLLIYHNNLRFSGVSDRFSGSKSGTSASLAIRDLLSEDEADYYCSTWDDTLKGWVFGGGTKVTVL"
class_assignment = 0

[[record]]
binder = "Ep6b_B01 scFv (scFv, V domains shown, numbers count on: Kabat numbering; scFv linker, as in m6) VH: QLQLQESGPGLVKPSETLSLTCTVSGASISANSYYGVWVRQSPGKGLEWVGSIAYRGNSNSGSTYYNPSLKSRATVSVDSSKNQVSLRLTSVTAADTALYYCARRQLLDDGTGYQWAAFDVWGQGTMVTVSS VL: QSVLTQPPSVSEAPRQTVTISCSGNSSNIGRYPVNWYQQLPGKAPKLLIYSDNLRFSGVPDRFSGSKSGTTASLAIRDLLSEDEADYYCSTWDDTLEGWVFGGGTKVTVL"
class_assignment = 1

[[record]]
binder = "A11b scFv (scFv, V domains shown, numbers count on: Kabat numbering; scFv linker, as in m6; Selected by BeSD, round IV) VH: QLQLQESGPGLVKPSETLSLTCTVPGASISANSYYGVWVRQSPGKGLEWVGSIAYRGNSNSGSTYYNPSLKSRATVSVDTSKNQVSLRLTSVTAADTALYYCARRQLLDDGTGYQWAAFDVWGQGTMVTVSG VL: QSVLTQPPSVSEAPRQTVTISCSGNSFNTGRYPVNWYQQLPGKAPKLLIYSNNLRLSGVSDRFSGSKSGTSASLAIRDLLSEDEADYYCSTWDDTLEGWVFGGGTKVTVL"
class_assignment = 1

[[record]]
binder = "Ep6b_B01 IgG (antibody, V domains shown, numbers count on: Kabat numbering; IgG heavy constant region; light constant region; IgG) VH: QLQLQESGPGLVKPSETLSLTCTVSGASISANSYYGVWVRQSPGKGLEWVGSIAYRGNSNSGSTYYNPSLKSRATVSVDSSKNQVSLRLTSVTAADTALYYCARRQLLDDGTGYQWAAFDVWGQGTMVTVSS VL: QSVLTQPPSVSEAPRQTVTISCSGNSSNIGRYPVNWYQQLPGKAPKLLIYSDNLRFSGVPDRFSGSKSGTTASLAIRDLLSEDEADYYCSTWDDTLEGWVFGGGTKVTVL"
class_assignment = 1

[[record]]
binder = "A01b scFv (scFv, V domains shown, numbers count on: Kabat numbering; scFv linker, as in m6; Selected by BeSD, round IV) VH: QLQLQESGPGLVKPSETLSLTCTVPGASISANSYYGVWIRQSPGKGLEWVGSIAYRGNSNSGSTYYNPSLKSRATVSVDTSKNRVSLRLTSVTAADTALYYCARRQLLDDGTGYQWAAFDVWGQGTMVTVPS VL: QSVLTQPPSVSEVPRQTVTISCSGNSFNIGRYPVNWYQQLPGKAPKLLIYHNNLRFSGVSDRFSGSKSGTSASLAIRDLLSEDEADYYCSTWDDTLKGWVFGGGTKVTVL"
class_assignment = 0


Ask: Does the reported Kd of anti-Fas receptor scFv E09 (scFv, V domains shown, VH of E09; scFv linker; VL of E09; also called parent; wild-type E09) VH: QLQLQESGPGLVKPSETLSLTCTVSGASISANSYYGVWVRQSPGKGLEWVGSIAYRGNSNSGSTYYNPSLKSRATVSVDTSKNQVSLRLTSVTAADTALYYCARRQLLDDGTGYQWAAFDVWGQGTMVTVSS VL: QSVLTQPPSVSEAPRQTVTISCSGNSFNIGRYPVNWYQQLPGKAPKLLIYYNNLRFSGVSDRFSGSKSGTSASLAIRDLLSEDEADYYCSTWDDTLKGWVFGGGTKVTVL stay below 2 nM?
Result: 0

Ask: Does the reported Kd of A07a IgG (antibody, V domains shown, numbers count on: Kabat numbering; IgG heavy constant region; light constant region; IgG made from the scFv A07a) VH: QLQLQESGPGLVKPSETLSLTCTVPGASISANSYYGVWVRQSPGKGLEWVGSIAYRGNSNSGSTYYNPSLKGRATVSVDTSKNQVSLRLTSVTAADTALYYCARRQLLDDGTGYQWAAFDNWDQGTMVTVSS VL: QSVLTQPPSVSEAPRQTVTISCSGNSFNIGRYPVNWYQQLPGKAPKLLIYSNNLRFSGVSDRFSGSKSGTSASLAIRDLLSEDEADYYCSTWDDTLKGWVFGGGTKVTVL stay below 2 nM?
Result: 1

Ask: Does the reported Kd of A09a scFv (scFv, V domains shown, numbers count on: Kabat numbering; scFv linker, as in m6; Selected by BeSD, round IV) VH: QLQLQEPGPGLTKPSETLSLTCTVPGASISADSYYGVWVRQSPGKGLEWVGSIAYRGNSNSGSTYYNPSLKSRATVSVDTSKNQVSLRLTSVTAADTALYYCARRQLLDDGTGYQWAAFDVWGQGTMVTVSS VL: QSVLTQPPSVSEAPRQTVTISCSGNSFNIGRYPVNWYQQLPGKAPKLLIYHNNLRFSGVSDRFSGSKSGTSASLAIRDLLSEDEADYYCSTWDDTLKGWVFGGGTKVTVL stay below 2 nM?
Result: 0

Ask: Does the reported Kd of E09 IgG (antibody, V domains shown, VH: as the VH of m6 (E09); IgG heavy constant region; VL: as the VL of m6 (E09); light constant region; IgG; also called parent) VH: QLQLQESGPGLVKPSETLSLTCTVSGASISANSYYGVWVRQSPGKGLEWVGSIAYRGNSNSGSTYYNPSLKSRATVSVDTSKNQVSLRLTSVTAADTALYYCARRQLLDDGTGYQWAAFDVWGQGTMVTVSS VL: QSVLTQPPSVSEAPRQTVTISCSGNSFNIGRYPVNWYQQLPGKAPKLLIYYNNLRFSGVSDRFSGSKSGTSASLAIRDLLSEDEADYYCSTWDDTLKGWVFGGGTKVTVL stay below 2 nM?
Result: 0

Ask: Does the reported Kd of R4aS IgG (antibody, V domains shown, numbers count on: Kabat numbering; IgG heavy constant region; light constant region; IgG; also called antibody R4aS) VH: QLQLQESGPGLVKPSETLSLTCTVPGASISANSYYGVWVRQSPGKGLEWVGSIAYRGNSNSGSTYYNPSLKSRATVSVDTSKNQVSLRLTSVTAADTALYYCARRQLLDDGTGYQWAAFDNWDQGTMVTVSS VL: QSVLTQPPSVSEAPRQTVTISCSGNSFNTGRYPVNWYQQLPGKAPKLLIYSNNLRLSGVSDRFSGSKSGTSASLAIRDLLSEDEADYYCSTWDDTLEGWVFGGGTKVTVL stay below 2 nM?
Result: 1

Ask: Does the reported Kd of A03a scFv (scFv, V domains shown, numbers count on: Kabat numbering; scFv linker, as in m6; Selected by BeSD, round IV) VH: QLQLQESGPGLVKPSETLSLTCTVPGASISANSYYGVWVRQSPGRGLEWVGSIAYRGNSNSGSTYYNPSLKSRATVSVDTSKNQVSLRLTSVTAADTALYYCARRRLLDDGTGYQWAAFDNWDQGTMVTVSS VL: QSVLTQSPSVSEAPRQTVTISCSGNSFNTGRYPVNWYQQLPGKAPKLLIYSNNLRLSGVSDRFSGSKSGTSASLAIRDLLSEDEADYYCSTWDDTLEGWVFGGGTKVTVL stay below 2 nM?
Result: 1
